test: Cytotoxicity in cultured L6 rat myoblast cells; format: cell-based; conditions: rat, L6 rat myoblast cells
measured quantity: IC50 (µM)
The answer is to be given in µM; state only the numeric part.

Q: Tell me the measured IC50 of N=C(N)c1ccc(-c2ccc(-c3ccc(C(=N)N)cc3)cc2)cc1 [6a] , please.
Result: 22.1

====

test system: L6 rat myoblast cells; experiment: Cytotoxicity in cultured L6 rat myoblast cells; type: cell-based; settings: read-out: Cytotoxicity IC50; cultured L6 rat myoblast cells
measured quantity: IC50 (µM)
Just the number please, in µM, no unit attached.

Q: Would you kindly share the measured IC50 for N=C(N)c1ccc(-c2ccc(-c3ccc(C(=N)N)cc3)nn2)cc1 [15b] ?
Result: 31.3

Taken from paper PMC3813006.
